Tested on: U251 CNS
Entry note: the call must match one of T (active), F (inactive)

Reference set (5 entries):
Cn1c2ccccc2c2c3c(c4c5cc(Br)ccc5n(C)c4c21)C(=O)N(O)C3=O ... T
N#CC(=C1C=CC(=NO)C=C1)c1ccccc1 ... F
CC(C)CCN1c2nc(Nc3cc(F)c(O)c(F)c3)ncc2N(C)C(=O)C1C (stereo unspecified) ... F
CCOC(=O)CCCn1c(SC)nc2[nH]cc(-c3ccccc3)c2c1=O ... F
O=C(Cc1ccc(/C=C/C(=O)c2ncc[nH]2)cc1)Nc1cc(F)c(F)c(F)c1 ... F

Called result for Cc1cc(I)cc(CN(C)CCCN2CCCCCCC2)c1O
F

----------
Recorded GI50 for the following compounds
Test system: OVCAR-5 ovarian
Experiment: NCI tumour cell line growth inhibition, 48 h

O=c1c2sc(=S)n(-c3ccc(F)cc3)c2ncn1Cc1ccc(F)cc1F ... > 100 µM

Measured GI50 of CCC(C)n1ncn(-c2ccc(N3CCN(c4ccc(OCC5COC(Cn6cncn6)(c6ccc(Cl)cc6Cl)O5)cc4)CC3)cc2)c1=O (stereo not drawn) : 56.3 µM

Per the records, this compound ( O=C1/C(=C/c2ccc(Br)cc2)COc2ccc(O)c(O)c21 ) has GI50 equal to 1.5 µM

----------
Test system: KM12 colon
Assay: NCI tumour cell line growth inhibition, 48 h; in the data active = GI50 below about 0.43 µM; inactive = the rest
Give one outcome, nothing more. List: active, inactive

Recorded call for CCCCCCCCCCCCOC1C(C(COC2OC(C3COC(C)(C)O3)C3OC(C)(C)OC23)NC(=O)Nc2ccc(C(=O)O)cc2)OC2OC(C)(C)OC21 (centres undefined) ?
inactive

----------
Tested on: 786-0 renal
Assay: NCI tumour cell line growth inhibition, 48 h
MEASURED_ENDPOINT: TGI (µM)
Answer with a number only, understood to be in µM.

CN1CCN(CCOc2ccc(-c3cnc4c(-c5ccccc5F)cnn4c3)cc2)CC1 ... 3.29
CCN(CC)CCOc1ccc(-c2nc3cc(Cl)ccc3s2)cc1 ... 3.14
CCOC(=O)CCCn1c(SC)nc2[nH]cc(-c3ccccc3)c2c1=O ... 44.8
O=[N+]([O-])c1ccc(C2=Nn3cnnc3SC2)o1 ... 32.1
O=C(Nc1nc2ccc(C(F)(F)F)cc2s1)c1cc(Cl)ccc1O ... 30.6

# ---- query compound ----
# TGI (compound: COc1ccc(CN2C(=O)/C(=C\C(=O)c3ccc(OCCN4CCCCC4)cc3)c3ccccc32)cc1 ) is 3.11

----------
Tested on: DU-145 prostate
Test: NCI tumour cell line growth inhibition, 48 h
MEASURED_ENDPOINT: TGI

The following compounds have reported results that may help.
CC(C)(Cl)C(Br)CCC(C)(Cl)C(Br)CBr (stereo not given) ... 85.2 µM
N#CC(=C1C=CC(=NO)C=C1)c1ccccc1 ... 4.05 µM
COCC1OC(Sc2ccccc2)C(O)C(OC)C1OC (stereo not given) ... > 100 µM
CCOC(=O)c1c(-c2ccc(OC)cc2)c(C#N)c(=S)n(C2OC(COC(C)=O)C(OC(C)=O)C(OC(C)=O)C2OC(C)=O)c1-c1ccccc1 (stereo not given) ... > 100 µM

# input for lookup
Please fill in: TGI reported for COC(=O)c1cc2c3c(ccc2[nH]1)N(C(=O)c1cc2cc(OC)c(OC)c(OC)c2[nH]1)CC3CCl (stereo not given) = > 84.6 µM

----------
Tested on: HCT-15 colon
Assay: NCI tumour cell line growth inhibition, 48 h; in the data active = GI50 below about 0.43 µM; inactive = the rest
Please state which outcome applies, choosing from YES (active), NO (inactive)

Worked examples, 5 compounds total:
COc1cnc2c(c1)C(=O)c1c-2n(CCCNC(C)C)c(=O)c2cc(Cl)ccc12 ... NO
C=C1CC[C@@H]2[C@](C)(COC(C)=O)[C@H](OC(C)=O)CC[C@@]2(C)[C@@H]1CC(Sc1ccccc1)C1=CCOC1=O (some centres undefined) ... NO
COc1ccc(/C=C(/C(=O)N2CCN(c3ccccc3)CC2)c2cc(OC)c(OC)c(OC)c2)cc1O ... YES
CCC(C)n1ncn(-c2ccc(N3CCN(c4ccc(OCC5COC(Cn6cncn6)(c6ccc(Cl)cc6Cl)O5)cc4)CC3)cc2)c1=O (centres undefined) ... NO
CC(C)CCN1c2nc(Nc3cc(F)c(O)c(F)c3)ncc2N(C)C(=O)C1C (centres undefined) ... NO

# lookup: test call for O=c1c2sc(=S)n(-c3ccc(F)cc3)c2ncn1Cc1ccc(F)cc1F
NO

Kindly provide the recorded test outcome for the following compound: [Cl][Hg][c]1cc(Br)cc(Br)c1
NO

Can you look up the reported call for CCOC(=O)CCCn1c(SC)nc2[nH]cc(-c3ccccc3)c2c1=O for me?
NO

Please indicate how the test categorized O=C(Nc1nc2ccc(C(F)(F)F)cc2s1)c1cc(Cl)ccc1O .
YES

----------
Form field: TGI (one value per entry).
Test system: OVCAR-8 ovarian
Assay: NCI tumour cell line growth inhibition, 48 h

A selection of reference data follows.
CC1(c2cccs2)CC(c2cccs2)=C(C#N)C(=C(C#N)C#N)N1 (stereo not given) ... 42.9 µM
COC(=O)c1cc2c(s1)C(=O)c1ccccc1-2 ... > 100 µM
COc1cc(OC)c(-c2ccc(OCc3ccccc3)c3c(OC)cc(C)cc23)c2c1C(C)=N[C@H](C)C2 ... 3.68 µM
CN(C)/C=N/c1nc2c(ncn2C2OC(CO)C(O)C2O)c(=O)[nH]1 (stereo not given) ... > 100 µM
FC(F)(F)c1ccc(N=C/C=C(/Nc2ccc(C(F)(F)F)cc2)c2ccc(Cl)cc2)cc1 ... 39 µM
N#CC(N)(C(=O)CCC(=O)Nc1cccc(Cl)c1)c1ccc(Cl)cc1 (stereo not given) ... > 100 µM
N=C1/C(=C/c2ccc(F)cc2)C(=O)N=C2SC=NN12 ... > 100 µM
CC(C)(C)OC(=O)N1CCc2[nH][nH]c(=O)c2C1 ... > 100 µM

Value of measured TGI for the entry O=C(O)c1ccc(N=C(C(=Nc2ccc(C(=O)O)cc2)c2ccccc2)c2ccccc2)cc1 : > 100 µM

Looking up OCCCCCCCCCCCOc1ccc(C2OCC3(CO2)COC(c2ccc(OCCCCCCCCCCCO)cc2)OC3)cc1 (stereo not given) , I found its TGI recorded as > 50 µM

----------
Reported TGI values for a set of molecules
Test system: MDA-MB-231 breast
Experiment: NCI tumour cell line growth inhibition, 48 h

# example entries with known answers
CC(C)(C)NC(NC(C)(C)C)=C(/C=C(/Cl)[N+](=O)[O-])[N+](=O)[O-] ... > 100 µM
O=C(O)c1ccc(N=C(C(=Nc2ccc(C(=O)O)cc2)c2ccccc2)c2ccccc2)cc1 ... > 100 µM
CCCCN(CCCC)CC(O)c1cc(-c2ccc(C(F)(F)F)cc2)nc(-c2ccc(C(F)(F)F)cc2)c1 (stereo not drawn) ... > 100 µM
CN(C(=O)C1=CCC2(CC1)OCCO2)c1ccccc1OS(=O)(=O)C(F)(F)F ... > 100 µM
CCN(CC)c1ccc2c(c1)OC(N)=C(C#N)C2c1cc(OC)c2c(c1)OCO2 (stereo not drawn) ... 2.73 µM

For record Clc1nc2ccccc2nc1CI the listed TGI is 9.08 µM

Form field TGI, entry OCCCCCCCCCCCOc1ccc(C2OCC3(CO2)COC(c2ccc(OCCCCCCCCCCCO)cc2)OC3)cc1 (stereo not drawn) : > 50 µM

Record CCC(C)n1ncn(-c2ccc(N3CCN(c4ccc(OCC5COC(Cn6cncn6)(c6ccc(Cl)cc6Cl)O5)cc4)CC3)cc2)c1=O (stereo not drawn) . Reported TGI: > 100 µM

----------
Tested on: NCI-H460 lung
Assay: NCI tumour cell line growth inhibition, 48 h
MEASURED_ENDPOINT: TGI (µM)
Output spec: scalar in µM, unitless text.

Look over these answered cases.
O=C(O)CC1NC(/C(=C/c2ccccc2)NC(=O)c2ccccc2)OC1=O (stereo not given) ... 69.6
COC(=O)CC(C#N)(OP1(=O)OC(c2ccccc2)C(C)N1C)c1ccccc1 (stereo not given) ... 44.4

For record CCC[CH2][Sn]1([CH2]CCC)[O]N=C(c2ccccc2)C(c2ccccc2)[O]1 (stereo not given) the listed TGI is 15.8

In plain terms, CC(C)(Cl)C(Br)CCC(C)(Cl)C(Br)CBr (stereo not given) has a documented TGI of 40.5

----------
We begin with a simple list: items and their reported TGI.
Tested on: SK-MEL-28 melanoma
Test: NCI tumour cell line growth inhibition, 48 h

Below, each entry is followed by its recorded TGI result.
CC(=O)O[C@H]1C[C@H]2[C@@H](OC(C)=O)/C=C3\C[C@](C)(C(=O)[C@H](O)C(=C1C)C2(C)C)[C@@H](O)C[C@@H]3OC(=O)[C@H](O)[C@H](c1ccccc1)N(C)C ... > 100 µM
CCCn1c2ccccc2c2ccc3c(c21)C(=O)C=CC3=O ... > 3.16 µM
N#CC(N)(C(=O)CCC(=O)Nc1cccc(Cl)c1)c1ccc(Cl)cc1 (stereo not given) ... > 100 µM
Clc1nc2ccccc2nc1CI ... 23 µM

Query compound follows.
// TGI lookup, compound = CC(CCC=O)CCOCc1ccccc1 (stereo not given) , result: > 100 µM
